- Tested on: juvenile schistosomes
- assayNotes: Microscopy analysis of juvenile morphology and motility (viability score 0-3)
- particulars: 10 μM, 72 h, Table S1
endpointLabel: number of juvenile worms with viability score 0
Answers are plain numbers.

Consider the following illustrative entries.
{"compound": "O=C(C1CCCCC1)N1CC(=O)N2CCc3ccc([N+](=O)[O-])cc3C2C1 (stereo not drawn) [Compound 2, 9-NO2–PZQ]", "assayedTarget": "juvenile schistosomes", "recordedMeasurement": 70}
{"compound": "CCCc1cn(-c2ccc3c(c2)C2CN(C(=O)C4CCCCC4)CC(=O)N2CC3)nn1 (stereo not drawn) [Compound 5e]", "assayedTarget": "juvenile schistosomes", "recordedMeasurement": 61}

Field: next compound
Query: number of juvenile worms with viability score 0; subject: Nc1ccc2c(c1)C1CN(C(=O)C3CCCCC3)CC(=O)N1CC2 (stereo not drawn) [Compound 3, 9-NH2–PZQ]
38

* * *

- System: adult schistosomes (male and female worms)
- assayNotes: Adult worm ex vivo high-content image-based motility assay
- Format: cell-based, Schistosoma mansoni
- particulars: male adult worms, 0 h (immediately after addition); single experiment or geometric mean; read-out: Male worm motility inhibition (EC50)
What pEC50 was measured for each of the following?
Answers are plain numbers, as −log10 of the molar value.

{"compound": "O=C(C1CCCCC1)N1CC(=O)N2CCc3ccc(-n4cc(C5=CCCCC5)nn4)cc3C2C1 (centres unmarked) [Compound 5b]", "assayedTarget": "adult schistosomes (male and female worms)", "endpointLabel": "pEC50", "recordedMeasurement": 4.48}

From here, focus on the item given below.
Could you share which pEC50 value was measured for O=C(C1CCCCC1)N1CC(=O)N2CCc3ccc([N+](=O)[O-])cc3C2C1 (centres unmarked) [Compound 2, 9-NO2–PZQ] ?
4.96

* * *

- Test system: juvenile schistosomes
- assayNotes: Microscopy analysis of juvenile morphology and motility (viability score 0-3)
- particulars: 10 μM, 72 h, Table S1
endpointLabel: number of juvenile worms with viability score 0
Numbers only.

Reference set, count: 3
{"molecule": "O=C(C1CCCCC1)N1CC(=O)N2CCc3ccc(-n4cc(C5=CCCCC5)nn4)cc3C2C1 (stereo not shown)", "recordedMeasurement": 21}
{"molecule": "[N-]=[N+]=Nc1ccc2c(c1)C1CN(C(=O)C3CCCCC3)CC(=O)N1CC2 (stereo not shown)", "recordedMeasurement": 48}
{"molecule": "O=C(C1CCCCC1)N1CC(=O)N2CCc3ccccc3C2C1 (stereo not shown) [PZQ, Praziquantel, reference compound]", "recordedMeasurement": 56}

Now consider the entry below.
Could you share which number of juvenile worms with viability score 0 value was measured for O=C(C1CCCCC1)N1CC(=O)N2CCc3ccc(-n4cc(COc5ccccc5)nn4)cc3C2C1 (stereo not shown) ?
19

* * *

- System: adult schistosomes (male and female worms)
- assayNotes: Adult worm ex vivo high-content image-based motility assay
- Format: cell-based, Schistosoma mansoni
- particulars: male adult worms, 48 h; single experiment or geometric mean; read-out: Male worm motility inhibition (EC50)
endpointLabel: EC50

{"molecule": "O=C(C1CCCCC1)N1CC(=O)N2CCc3ccc(-n4cc(C5=CCCCC5)nn4)cc3C2C1 (centres unmarked)", "endpointLabel": "EC50", "recordedMeasurement": "49 µM"}

# next molecule below
Field request: EC50 | item: O=C(C1CCCCC1)N1CC(=O)N2CCc3ccc([N+](=O)[O-])cc3C2C1 (centres unmarked)
16 µM

* * *

- Tested on: adult schistosomes (male and female worms)
- assayNotes: Adult worm ex vivo high-content image-based motility assay
- Format: cell-based, Schistosoma mansoni
- particulars: male, 72 h, individual experiments; listed as PZQ (1); read-out: Male worm motility inhibition (EC50), values of independent experiments
endpointLabel: EC50 (nM)
Numbers only, in nM.

Using the record for O=C(C1CCCCC1)N1CC(=O)N2CCc3ccccc3C2C1 (stereo not shown) [PZQ, Praziquantel, reference compound] , report its EC50.
170

* * *

Could you please report measured pEC50 for the items listed next?
- Tested on: adult schistosomes (male and female worms)
- assayNotes: Adult worm ex vivo high-content image-based motility assay
- Type: cell-based, Schistosoma mansoni
- particulars: Schistosoma mansoni, 48 h, female adult worms, 48 h; single experiment or geometric mean; read-out: Female worm motility inhibition (EC50)
Numbers only, as −log10 of the molar value.

{"compound": "Nc1ccc2c(c1)C1CN(C(=O)C3CCCCC3)CC(=O)N1CC2 (centres unmarked)", "assayedTarget": "adult schistosomes (male and female worms)", "pEC50": 5.00}

For each listed entry, give its pEC50.
1. O=C(C1CCCCC1)N1CC(=O)N2CCc3ccc(-n4cc(C5=CCCCC5)nn4)cc3C2C1 (centres unmarked)
2. O=C(C1CCCCC1)N1CC(=O)N2CCc3ccc([N+](=O)[O-])cc3C2C1 (centres unmarked)

1. 4.02
2. 4.54

Return reported pEC50 values for all items listed beneath this line.
1. CCCc1cn(-c2ccc3c(c2)C2CN(C(=O)C4CCCCC4)CC(=O)N2CC3)nn1 (centres unmarked)
2. [N-]=[N+]=Nc1ccc2c(c1)C1CN(C(=O)C3CCCCC3)CC(=O)N1CC2 (centres unmarked)

[5.41, 5.03]

* * *

- Test system: adult schistosomes (male and female worms)
- assayNotes: Adult worm ex vivo high-content image-based motility assay
- Assay type: cell-based, Schistosoma mansoni
- particulars: male, 72 h, individual experiments; read-out: Male worm motility inhibition (EC50), values of independent experiments
endpointLabel: pEC50
One number for each entry, as −log10 of the molar value.

{"compound": "O=C(C1CCCCC1)N1CC(=O)N2CCc3ccc([N+](=O)[O-])cc3C2C1 (stereo not drawn)", "endpointLabel": "pEC50", "recordedMeasurement": 4.70}

Please state pEC50 for every compound in the list that follows.
1. CCCc1cn(-c2ccc3c(c2)C2CN(C(=O)C4CCCCC4)CC(=O)N2CC3)nn1 (stereo not drawn)
2. O=C(C1CCCCC1)N1CC(=O)N2CCc3ccc(-n4cc(C5=CCCCC5)nn4)cc3C2C1 (stereo not drawn)

1. 5.70
2. 4.44

* * *

For each of the molecules below, state its Emax.
- assayedTarget: Eg.TRPMPZQ (Echinococcus granulosus)
- Sequence (W6UVV9 entry or part of it): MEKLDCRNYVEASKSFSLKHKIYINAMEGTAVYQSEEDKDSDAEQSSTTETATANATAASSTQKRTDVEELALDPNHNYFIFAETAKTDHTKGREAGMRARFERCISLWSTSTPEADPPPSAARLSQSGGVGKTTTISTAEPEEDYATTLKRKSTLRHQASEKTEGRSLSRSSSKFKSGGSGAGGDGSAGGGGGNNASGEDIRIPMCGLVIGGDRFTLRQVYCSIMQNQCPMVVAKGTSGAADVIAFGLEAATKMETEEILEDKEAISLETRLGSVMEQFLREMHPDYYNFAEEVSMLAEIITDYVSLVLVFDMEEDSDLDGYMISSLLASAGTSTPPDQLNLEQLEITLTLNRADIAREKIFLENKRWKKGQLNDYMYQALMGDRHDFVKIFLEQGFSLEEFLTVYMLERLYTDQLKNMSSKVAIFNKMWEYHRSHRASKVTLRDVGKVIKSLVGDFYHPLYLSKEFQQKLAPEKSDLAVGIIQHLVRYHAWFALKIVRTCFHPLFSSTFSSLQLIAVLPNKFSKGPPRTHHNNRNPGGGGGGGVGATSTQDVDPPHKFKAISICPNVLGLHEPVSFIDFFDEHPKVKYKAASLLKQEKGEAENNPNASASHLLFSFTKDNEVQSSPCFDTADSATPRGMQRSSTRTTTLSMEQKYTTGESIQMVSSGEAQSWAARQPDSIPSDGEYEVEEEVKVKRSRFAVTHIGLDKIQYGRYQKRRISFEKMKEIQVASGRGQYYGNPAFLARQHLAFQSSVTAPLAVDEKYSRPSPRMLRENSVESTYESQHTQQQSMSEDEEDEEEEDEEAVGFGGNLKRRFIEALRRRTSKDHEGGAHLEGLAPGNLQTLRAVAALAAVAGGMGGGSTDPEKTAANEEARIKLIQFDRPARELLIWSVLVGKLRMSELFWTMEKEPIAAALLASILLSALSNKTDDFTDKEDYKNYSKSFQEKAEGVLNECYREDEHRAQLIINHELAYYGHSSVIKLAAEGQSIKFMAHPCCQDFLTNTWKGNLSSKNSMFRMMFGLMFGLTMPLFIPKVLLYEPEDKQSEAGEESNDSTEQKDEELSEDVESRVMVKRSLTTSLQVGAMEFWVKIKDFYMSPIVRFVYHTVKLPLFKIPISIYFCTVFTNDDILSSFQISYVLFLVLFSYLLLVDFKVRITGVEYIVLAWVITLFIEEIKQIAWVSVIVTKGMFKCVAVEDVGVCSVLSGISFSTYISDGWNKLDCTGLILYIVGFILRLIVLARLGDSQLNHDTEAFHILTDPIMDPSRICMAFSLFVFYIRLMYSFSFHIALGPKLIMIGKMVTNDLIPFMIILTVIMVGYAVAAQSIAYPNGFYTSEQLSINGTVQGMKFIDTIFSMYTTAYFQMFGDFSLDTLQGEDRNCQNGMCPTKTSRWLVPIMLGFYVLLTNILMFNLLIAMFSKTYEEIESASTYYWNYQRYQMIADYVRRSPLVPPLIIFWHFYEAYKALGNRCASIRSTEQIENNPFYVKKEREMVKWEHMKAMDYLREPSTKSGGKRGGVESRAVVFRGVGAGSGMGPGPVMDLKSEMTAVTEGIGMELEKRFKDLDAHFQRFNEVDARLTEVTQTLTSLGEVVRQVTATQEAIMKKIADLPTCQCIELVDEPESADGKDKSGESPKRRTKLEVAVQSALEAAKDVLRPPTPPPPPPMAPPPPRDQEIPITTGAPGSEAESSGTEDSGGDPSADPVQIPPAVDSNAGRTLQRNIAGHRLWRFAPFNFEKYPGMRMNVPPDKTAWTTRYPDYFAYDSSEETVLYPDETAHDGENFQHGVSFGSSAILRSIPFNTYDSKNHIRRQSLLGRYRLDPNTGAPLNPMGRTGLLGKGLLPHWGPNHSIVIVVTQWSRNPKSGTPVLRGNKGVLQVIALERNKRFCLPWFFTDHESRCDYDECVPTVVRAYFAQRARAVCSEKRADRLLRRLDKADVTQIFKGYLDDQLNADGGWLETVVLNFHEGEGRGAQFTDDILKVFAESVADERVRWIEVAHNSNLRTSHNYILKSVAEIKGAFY
- assayNotes: cell-based
- particulars: HEK293, Ca2+ reporter, mean ± standard deviation; read-out: Bmax, Eg.TRPMPZQ activation
Give bare numbers, in %.

{"molecule": "O=C(C1CCCCC1)N1CC(=O)N2CCc3ccc(-n4cc(COc5ccccc5)nn4)cc3C2C1 (stereo not shown) [Compound 5c]", "Emax / %": 7.63}

Go through the items and report each one's Emax.
1. Nc1ccc2c(c1)C1CN(C(=O)C3CCCCC3)CC(=O)N1CC2 (stereo not shown) [Compound 3, 9-NH2–PZQ]
2. O=C(C1CCCCC1)N1CC(=O)N2CCc3ccc([N+](=O)[O-])cc3C2C1 (stereo not shown) [Compound 2, 9-NO2–PZQ]
3. [N-]=[N+]=Nc1ccc2c(c1)C1CN(C(=O)C3CCCCC3)CC(=O)N1CC2 (stereo not shown) [Compound 4]
4. CCCc1cn(-c2ccc3c(c2)C2CN(C(=O)C4CCCCC4)CC(=O)N2CC3)nn1 (stereo not shown) [Compound 5e]
5. O=C(C1CCCCC1)N1CC(=O)N2CCc3ccc(-n4cc(C5=CCCCC5)nn4)cc3C2C1 (stereo not shown) [Compound 5b]

[138, 114, 145, 132, 10.4]

Emax lookup needed for O=C(C1CCCCC1)N1CC(=O)N2CCc3ccc(-n4cc(C5(O)CCCCC5)nn4)cc3C2C1 (stereo not shown) [Compound 5d] , thanks.
94

* * *

Field: CC50 at 48 h. Provide a value for each of the compounds that follow.
- assayNotes: in vitro
- particulars: human, HepG2 cytotoxicity (CC50)
Give bare numbers, in µM.

{"compound": "O=C(C1CCCCC1)N1CC(=O)N2CCc3ccc(-n4cc(COc5ccccc5)nn4)cc3C2C1 (stereo not drawn)", "CC50 at 48 h (µM)": 88.1}
{"compound": "[N-]=[N+]=Nc1ccc2c(c1)C1CN(C(=O)C3CCCCC3)CC(=O)N1CC2 (stereo not drawn)", "CC50 at 48 h (µM)": 156}
{"compound": "O=C(C1CCCCC1)N1CC(=O)N2CCc3ccc([N+](=O)[O-])cc3C2C1 (stereo not drawn)", "CC50 at 48 h (µM)": 368}

Please look at the following compound next.
Could you share which CC50 at 48 h value was measured for O=C(C1CCCCC1)N1CC(=O)N2CCc3ccc(-n4cc(C5=CCCCC5)nn4)cc3C2C1 (stereo not drawn) ?
28.5

* * *

- Tested on: adult schistosomes (male and female worms)
- assayNotes: Adult worm ex vivo high-content image-based motility assay
- Type: cell-based, Schistosoma mansoni
- particulars: female, 24 h, individual experiments; read-out: Female worm motility inhibition (EC50), values of independent experiments
endpointLabel: pEC50
One number for each entry, as −log10 of the molar value.

Endpoint output: pEC50 of Nc1ccc2c(c1)C1CN(C(=O)C3CCCCC3)CC(=O)N1CC2 (stereo not shown) [Compound 3, 9-NH2–PZQ] . Value?
4.99
